Recorded values, source paper PMC9482650.

Target: NHERF2_2, Q15599
Sequence (Q15599 142-238): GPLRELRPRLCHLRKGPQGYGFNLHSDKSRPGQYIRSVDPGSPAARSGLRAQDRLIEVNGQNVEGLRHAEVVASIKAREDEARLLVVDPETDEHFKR
Experiment: holdup assay
Parameters: key: below the threshold = too weak to quantify, mostly under pKd 3.1 to 4
Conditions: plain residues with an end cap or a label only (N-terminal biotin on a linker: ado-ado)
Kind request: treat 4 as inclusive, so pKd at 4 or higher is yes, anything lower is no.

INSERT INTO measurements (binder, class) VALUES
  ('KKMLQRRTLL [OR8G1, Q15617]', 'no'),
  ('ELSATVTTDC [TRIP6, Q15654]', 'no'),
  ('RFQQRMQTHV [KIRREL1, Q96J84]', 'no'),
  ('GIKKITSTAL [RPS6KA3, P51812]', 'yes');

Asked: Is the recorded value of pKd equal to or greater than 4 for this binder? QLSFNTDTLC [ABCA2, Q9BZC7]
Given back: no
